Molecular target: collagenase (Oryctolagus cuniculus)
Construct: endogenous in cells; host or cells: primary knee articular chondrocytes of Japanese white rabbit, stimulated with human recombinant interleukin-1 ('Interleukin-1a' in the source); culture supernatant
Sequence (P13943 99-468): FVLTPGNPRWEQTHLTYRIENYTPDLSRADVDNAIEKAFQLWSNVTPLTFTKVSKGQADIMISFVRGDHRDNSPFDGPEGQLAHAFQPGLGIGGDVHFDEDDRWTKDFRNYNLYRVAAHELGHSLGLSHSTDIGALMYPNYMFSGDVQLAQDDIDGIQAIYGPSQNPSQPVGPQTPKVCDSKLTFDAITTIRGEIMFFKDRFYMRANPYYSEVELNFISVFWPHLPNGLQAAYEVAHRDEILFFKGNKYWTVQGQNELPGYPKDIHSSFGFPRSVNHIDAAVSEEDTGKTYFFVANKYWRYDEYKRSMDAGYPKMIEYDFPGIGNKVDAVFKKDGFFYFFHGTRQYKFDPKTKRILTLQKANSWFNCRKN
Test: Collagenase inhibition test (in vitro), decomposition of FITC-labelled collagen
Format: biochemical, Japanese white rabbit
Details: collagenase from IL-1-stimulated rabbit chondrocyte culture supernatant, trypsin-activated; 35° C.; 5% DMSO; read-out: Concentration of Drug Showing 50% Inhibition, IC50
Property Measured: IC50 (nM)
Response body: numeric value in nM, unit text excluded.

Quick one: IC50 of 4-dedimethylamino-12a-deoxytetracycline [DODMAT mixture] ?
2500
